assay_notes: Dynamic light scattering of LNPs: Z-average diameter, number average diameter, PDI
Assay type: physicochemical
condition_details: LNP, sg:mRNA 1:1, N/P about 6, 50/9/38/3; Table 2, Experiments 2-20
Recorded Z-avg (nm) split into classes LOW: < 70 nm; MID: ≥ 70 nm and < 90 nm; HIGH: ≥ 90 nm

>  <compound>
CCCCC/C=C\C/C=C\CCCCCCCC(=O)OCC(COC(=O)CCC(OCCCCCCCC)OCCCCCCCC)COC(=O)NC(C)CN(CC)CC (stereo not shown) [Compound 44]

>  <assigned_category>
MID

$$$$
>  <compound>
CCCCC/C=C\C/C=C\CCCCCCCC(=O)OCC(COC(=O)CCC(OCCCCCCCC)OCCCCCCCC)COC(=O)N1CCN(CC)CC1 (stereo not shown) [Compound 48]

>  <assigned_category>
LOW

$$$$
>  <compound>
CCCCCCCCCCOC(=O)CCCCCCCC(=O)OCC(COC(=O)CCCN(CC)CC)COC(=O)CCC(OCCCCCCCC)OCCCCCCCC (stereo not shown) [Compound 75]

>  <assigned_category>
HIGH

$$$$
>  <compound>
CCCCC/C=C\C/C=C\CCCCCCCC(=O)OCC(COC(=O)CCCCCC(CCCCCC)CCCCCC)COC(=O)OCCCN(CC)CC (stereo not shown) [Compound 68]

>  <assigned_category>
MID

$$$$
>  <compound>
CCCCCCCCCCOC(=O)CCCCCCCC(=O)OCC(COC(=O)CCCCCC(=O)OC(CCCCCCCC)CCCCCCCC)COC(=O)OCCC1CCCN1C (stereo not shown) [Compound 80]

>  <assigned_category>
HIGH

$$$$
>  <compound>
CCCCC/C=C\C/C=C\CCCCCCCC(=O)OCC(COC(=O)CCC(OCCCCCCCC)OCCCCCCCC)COC(=O)CCN(CC)CC (stereo not shown) [Compound 27]

>  <assigned_category>
LOW

$$$$

====

assay_notes: Dynamic light scattering of LNPs: Z-average diameter, number average diameter, PDI
Type: physicochemical
condition_details: LNP, sg:mRNA 1:1, N/P about 6, 50/9/38/3; Table 2, Experiments 2-20

>  <compound>
CCCCCCCCCCOC(=O)CCCCCCCC(=O)OCC(COC(=O)CCC(OCCCCCCCC)OCCCCCCCC)COC(=O)OCCC1CCCN1C (stereo not shown)

>  <Z-avg (nm)>
105.7 nm

$$$$
>  <compound>
CCCCC/C=C\C/C=C\CCCCCCCC(=O)OCC(COC(=O)CCC(OCCCCCCCC)OCCCCCCCC)COC(=O)OCCCN1CCCCCC1 (stereo not shown)

>  <Z-avg (nm)>
74.78 nm

$$$$
>  <compound>
CCCCC/C=C\C/C=C\CCCCCCCC(=O)OCC(COC(=O)CCC(OCCCCCCCC)OCCCCCCCC)COC(=O)OCC1CCCN(C)C1 (stereo not shown)

>  <Z-avg (nm)>
76.24 nm

$$$$
>  <compound>
CCCCC/C=C\C/C=C\CCCCCCCC(=O)OCC(COC(=O)CCC(OCCCCCCCC)OCCCCCCCC)COC(=O)NC(C)CN(C)C (stereo not shown)

>  <Z-avg (nm)>
82.93 nm

$$$$
>  <compound>
CCCCC/C=C\C/C=C\CCCCCCCC(=O)OCC(COC(=O)CCC(OCCCCCCCC)OCCCCCCCC)COC(=O)OCCCN(C)CC (stereo not shown)

>  <Z-avg (nm)>
79.25 nm

$$$$
>  <compound>
CCCCCCCCCCOC(=O)CCCCCCCC(=O)OCC(COC(=O)CCCCCC(=O)OC(CCCCCCCC)CCCCCCCC)COC(=O)CCCN(C)C (stereo not shown)

>  <Z-avg (nm)>
117.5 nm

$$$$
>  <compound>
CCCCC/C=C\C/C=C\CCCCCCCC(=O)OCC(COC(=O)CCC(OCCCCCCCC)OCCCCCCCC)COC(=O)NCC1CCCN1C (stereo not shown)

>  <Z-avg (nm)>
79.81 nm

$$$$
>  <compound>
CCCCC/C=C\C/C=C\CCCCCCCC(=O)OCC(COC(=O)CCC(OCCCCCCCC)OCCCCCCCC)COC(=O)OCCCN(C(C)C)C(C)C (stereo not shown)

>  <Z-avg (nm)>
75.41 nm

$$$$
>  <compound>
CCCCCCCCCCOC(=O)CCCCCCCC(=O)OCC(COC(=O)CCC(OCCCCCCCC)OCCCCCCCC)COC(=O)OCC1CCCN(C)C1 (stereo not shown)

>  <Z-avg (nm)>
95.57 nm

$$$$
>  <compound>
CCCCCCCCCC(CC)OC(=O)CCCCCCCC(=O)OCC(COC(=O)CCC(OCCCCCCCC)OCCCCCCCC)COC(=O)OCCCN(CC)CC (stereo not shown)

>  <Z-avg (nm)>
91.1 nm

$$$$
>  <compound>
CCCCC/C=C\C/C=C\CCCCCCCC(=O)OCC(COC(=O)CCC(OCCCCCCCC)OCCCCCCCC)COC(=O)OCC1CCN(CC)C1 (stereo not shown)

>  <Z-avg (nm)>
86.15 nm

$$$$
>  <compound>
CCCCCCCCCCOC(=O)CCCCCCCC(=O)OCC(COC(=O)CCCC(=O)OC(CCCCCCCC)CCCCCCCC)COC(=O)CCCN(C)C (stereo not shown)

>  <Z-avg (nm)>
107.3 nm

$$$$
>  <compound>
CCCCCCCCCCOC(=O)CCCCCCCC(=O)OCC(COC(=O)CCC(OCCCCCCCC)OCCCCCCCC)COC(=O)NCCN(CC)CC (stereo not shown)

>  <Z-avg (nm)>
110.6 nm

$$$$
>  <compound>
CCCCC/C=C\C/C=C\CCCCCCCC(=O)OCC(COC(=O)CCCN(C)C)COC(=O)CCC(OCCCCCCCC)OCCCCCCCC (stereo not shown)

>  <Z-avg (nm)>
88 nm

$$$$
>  <compound>
CCCCC/C=C\C/C=C\CCCCCCCC(=O)OCC(COC(=O)CCC(OCCCCCCCC)OCCCCCCCC)COC(=O)N1CCN(C)CC1 (stereo not shown)

>  <Z-avg (nm)>
58.93 nm

$$$$
>  <compound>
CCCCCC/C=C\COC(=O)CCCCCCCC(=O)OCC(COC(=O)CCCCCC(=O)OC(CCCCCCCC)CCCCCCCC)COC(=O)OCCCN(CC)CC (stereo not shown)

>  <Z-avg (nm)>
97.86 nm

$$$$
>  <compound>
CCCCCCCCCC(C)OC(=O)CCCCCCCC(=O)OCC(COC(=O)CCC(OCCCCCCCC)OCCCCCCCC)COC(=O)OCCCN(CC)CC (stereo not shown)

>  <Z-avg (nm)>
96.35 nm

$$$$
>  <compound>
CCCCC/C=C\C/C=C\CCCCCCCC(=O)OCC(COC(=O)CCC(OCCCCCCCC)OCCCCCCCC)COC(=O)NC1CCCN(CC)C1 (stereo not shown)

>  <Z-avg (nm)>
73.71 nm

$$$$
>  <compound>
CCCCCCCCOC(CCC(=O)OCC(COC(=O)CCCCCCCCCCC(=O)OCCCCC)COC(=O)OCCCN(CC)CC)OCCCCCCCC (stereo not shown)

>  <Z-avg (nm)>
104.2 nm

$$$$
>  <compound>
CCCCCCCCCCOC(=O)CCCCCCCC(=O)OCC(COC(=O)CCC(OCCCCCCCCC)OCCCCCCCCC)COC(=O)OCCCN(CC)CC (stereo not shown)

>  <Z-avg (nm)>
99.24 nm

$$$$
>  <compound>
CCCCC/C=C\C/C=C\CCCCCCCC(=O)OCC(COC(=O)CCC(OCCCCCCCC)OCCCCCCCC)COC(=O)NCC1CCCN1CC (stereo not shown)

>  <Z-avg (nm)>
74.12 nm

$$$$
>  <compound>
CCCCCC/C=C\COC(=O)CCCCCCCCCC(=O)OCC(COC(=O)CCC(OCCCCCCCC)OCCCCCCCC)COC(=O)OCCCN(CC)CC (stereo not shown)

>  <Z-avg (nm)>
85.11 nm

$$$$
>  <compound>
CCCCC/C=C\C/C=C\CCCCCCCC(=O)OCC(COC(=O)CCC(OCCCCCCCC)OCCCCCCCC)COC(=O)OCCCCN(CC)CC (stereo not shown)

>  <Z-avg (nm)>
85.35 nm

$$$$
>  <compound>
CCCCC/C=C\C/C=C\CCCCCCCC(=O)OCC(COC(=O)CCCCC(OCCCCCCCC)OCCCCCCCC)COC(=O)OCCCN(CC)CC (stereo not shown)

>  <Z-avg (nm)>
73.46 nm

$$$$
>  <compound>
CCCCC/C=C\C/C=C\CCCCCCCC(=O)OCC(COC(=O)CCC(OCCCCCCCC)OCCCCCCCC)COC(=O)OCCC(C)N(C)C (stereo not shown)

>  <Z-avg (nm)>
89.43 nm

$$$$
